// read-out Ki, gathered for 5-hydroxytryptamine receptor 2A (Rattus norvegicus) from published studies
endpoint: Ki (nM)

Sample records with Ki:
// returns reported Ki for input Cc1cc2c(cc1Cl)N(C(=O)Nc1ccc(OC(CCN(C)C)c3ccccc3)cc1)CC2 (stereo not given)
138

Query: Ki; subject: c1ccc(C2Oc3ccccc3OC2COCCCCN2CCC(c3nc4ccccc4o3)CC2)cc1 (stereo not given)
0.71

Please give the measured Ki for this compound: `Clc1cccc(N2CCN(CCCCOc3cc4ccccc4cn3)CC2)c1Cl`
123

What value of measured Ki is listed for `c1cnc(N2CCN(CCCOc3ccc(-c4nc5ccccc5o4)cc3)CC2)nc1` ?
38.5

Entry `O=c1[nH]c2ccccc2c(=O)n1CCN1CCC(C(c2ccccc2)c2ccccc2)CC1` has what Ki?
18

Given the entry CN1CCCCC1CCN1c2ccccc2Sc2ccc([S+](C)[O-])cc21 (single isomer, unassigned; 2) , report its measured Ki.
55

What measured Ki goes with `COc1ccccc1N1CCN(CCCCc2ccc3c(c2)oc(=O)n3CCN2CCC(=C(c3ccc(F)cc3)c3ccc(F)cc3)CC2)CC1` ?
335

Need Ki of `COc1ccccc1C(=O)CCCCCN1CCN(c2noc3ccccc23)CC1` , thanks.
9.03

(P) COc1ccc(N2CCN(CCNC(=O)c3ccccn3)CC2)cc1
(Q) COc1ccccc1N1CCN(CCCCn2cnc3c2c(=O)n(C)c(=O)n3C)CC1
Compare the recorded Ki of P and Q ; state which is larger. // respond with label for picked entry
Q

(A) O=C(NCCN1CCN(c2cccc(Cl)c2)CC1)[C@@H]1CCCN1C(=O)c1ccccc1
(B) c1ccc(N2CCN(CCCCCCN3CCN(c4ccnc5ccccc45)CC3)CC2)cc1
(C) O=C(CCCN1CCC(c2noc3cc(F)ccc23)CC1)c1cc2c3c(c1)CCC(=O)N3CCC2
(D) O=S(=O)(NCCCN1CCN(c2cccc(Cl)c2)CC1)c1cnc2ccccc2c1
Please give the order of these compounds when sorted by Ki, largest value leading. # list labels per requested ordering
A, D, B, C

----------
Ki values for 5-hydroxytryptamine receptor 2A (Rattus norvegicus, UniProt P14842), compiled from several publications.
endpoint: Ki (µM)

For orientation, consider the following solved cases.
Which Ki is reported for this compound? `N=C1NC(=O)/C(=C\c2c[nH]c3ccccc23)N1`
1.17

Which Ki is reported for this compound? `COc1ccccc1N1CCN(CCCn2cnc3c2c(=O)n(C)c(=O)n3C)CC1`
0.927

Given c1ccc(C2Oc3ccccc3OC2COCCCN2CCC(c3nc4ccccc4s3)CC2)cc1 (configuration not stated) , state its recorded Ki.
0.019

Reported Ki, compound `Cn1c(=O)c2c([nH]c(=O)n2CCCN2CCN(c3cccc(Cl)c3)CC2)n(C)c1=O` : ____
0.058

What measured Ki goes with `CN1CCc2ccc(OCCCN3CCN(c4ccccn4)CC3)cc2C1=O` ?
1.16

(a) Clc1cccc(N2CCN(CCc3ccccc3)CC2)c1
(b) O=C(NCCCN1CCN(c2ccccc2F)CC1)c1ccccn1
(c) O=C(CCN1CCN(c2cccc(Cl)c2Cl)CC1)c1cc2c3c(c1)CCC(=O)N3CCC2
Ranking field: Ki; order: falling. List each label, following the requested order.
b, c, a

(I) O=C(c1ccccc1)C1CCN(CCCCc2ccccc2)CC1
(II) Cn1c2c(c3ccccc31)CN(CCCC(O)c1ccc(F)cc1)CC2 (configuration not stated)
(III) N#Cc1ccccc1N1CCN(CCNC(=O)c2ccccn2)CC1
Thanks in advance: please rank these 3 entries by Ki, highest to lowest. Sort the labels as requested; that list is your answer.
III, II, I
(III: 0.616 µM, II: 0.16 µM, I: 0.01 µM)

(A) Cc1cc(=O)oc2cc(OCCCCN3CCC(C(=O)c4ccc(F)cc4)CC3)ccc12
(B) Cn1c(=O)c2c(nc3nc(NCCCN4CCN(c5cccc(Cl)c5)CC4)ccn32)n(C)c1=O
(C) O=c1c2ccccc2ncn1CCCN1CCN(c2cccc(Cl)c2)CC1
(D) CC(C)c1ccccc1N1CCN(CCCCCC(=O)NC2CCCc3ccccc32)CC1 (configuration not stated)
Ascending by Ki, please: list the compounds accordingly. Form field (ranking): labels in requested order.
C, B, A, D

----------
pKi: −log10 of the molar value.
Compiled from multiple publications: pKi readings for 5-hydroxytryptamine receptor 2A (Rattus norvegicus, UniProt P14842).
endpoint: pKi

Solved cases (8 shown):
Recorded pKi of `COc1ccc(C(=O)N2CCC(CN3CCC(c4noc5cc(F)ccc45)CC3)CC2)cc1` , please.
6.92

Data request, read-out pKi, for O=C1CCc2cc(C(O)CCN3CCC(c4noc5cc(F)ccc45)CC3)cc3c2N1CC3 (configuration not stated)
7.22

I am curious: what pKi value has been reported for Fc1ccc(OC(CC2CCNCC2)c2ccc(F)cc2)cc1 (configuration not stated) ?
6.71

Dear colleague, I am looking for the recorded pKi of the following compound: `Cc1ccccc1CN1CCC(NC(=O)c2ccc3ccccc3c2)CC1`
6.76

Data request, read-out pKi, for `CN1CCc2ccc(OCCCCN3CCC(c4noc5cc(F)ccc45)CC3)cc2C1=O`
7.55

Reported pKi for `CCOc1nc2c(c(=O)n(C)c(=O)n2C)n1CCCN1CCc2ccccc2C1` : what is it?
6.23

Entry `CC(C)Oc1ccccc1OCCNCc1cccc(-c2ccco2)c1` has what pKi?
6.43

// query pKi value for entry `O=C1CCc2cc(CCCCCN3CCC(c4noc5cc(F)ccc45)CC3)cc3c2N1CC3`
7.23

(A) O=C(c1ccc(F)cc1)C1CCN(CCC2CCCc3ccccc3C2=O)CC1 (configuration not stated)
(B) COc1ccccc1N1CCN(CCCCOc2ccc3c4c(c(=O)oc3c2)CCCC4)CC1
Looking only at measured pKi, which entry is lower, A or B ? Give the label of your selection.
B

(a) O=c1ccc(OCCCN2CCC(c3noc4cc(F)ccc34)CC2)nn1-c1cc(F)cc(F)c1
(b) Cc1ccc(S(=O)(=O)N2CCC(CN3CCC(c4noc5cc(F)ccc45)CC3)CC2)cc1
Quick one: lower pKi, a or b ? Lab note: record the label of whichever item you select.
b

(A) O=C(CCC(Oc1ccc([N+](=O)[O-])cc1)c1ccc(F)cc1)C1CCN(c2ccc(F)cc2)CC1 (configuration not stated)
(B) O=C1CC(c2ccccc2)c2ccc(OCCCCN3CCC(c4noc5cc(F)ccc45)CC3)cc2O1 (configuration not stated)
(C) COc1ccccc1N1CCN(CCCCN2C(=O)C[C@H](NC(=O)C3CCCCC3)C2=O)CC1
# sort list by recorded pKi, greatest to least // format: requested-order list of labels
A, C, B
(A: 7.26, C: 6.74, B: 6.25)

(a) O=C1CC(CN2CCN(CCCCC(=O)c3ccc(F)cc3)CC2)C(c2ccccc2)=NN1 (configuration not stated)
(b) CCCOc1nc2c(c(=O)n(C)c(=O)n2C)n1CCCN1CCN(c2ccccc2OC)CC1
Problem: Given the entries a and b , determine which has the lower reported pKi. Reply with the label of the item you choose.
a
(a: 6.00, b: 6.27)

----------
A compilation of published Ki results with 5-hydroxytryptamine receptor 2A (Rattus norvegicus).
Sequence (P14842 whole entry): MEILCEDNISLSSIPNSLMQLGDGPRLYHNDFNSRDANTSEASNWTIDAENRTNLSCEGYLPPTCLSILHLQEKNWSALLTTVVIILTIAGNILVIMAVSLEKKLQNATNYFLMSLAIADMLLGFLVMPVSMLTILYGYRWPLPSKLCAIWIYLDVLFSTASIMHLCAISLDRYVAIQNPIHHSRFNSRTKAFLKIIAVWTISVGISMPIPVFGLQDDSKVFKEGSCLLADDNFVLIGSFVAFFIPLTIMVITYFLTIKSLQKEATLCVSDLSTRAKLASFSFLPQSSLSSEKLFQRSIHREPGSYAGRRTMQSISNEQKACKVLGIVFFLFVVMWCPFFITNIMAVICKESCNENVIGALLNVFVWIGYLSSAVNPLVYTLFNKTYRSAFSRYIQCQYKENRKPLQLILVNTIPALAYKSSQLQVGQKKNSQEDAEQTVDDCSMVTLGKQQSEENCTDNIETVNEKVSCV
endpoint: Ki (nM)

Solved cases below.
For the molecule shown here, CC(c1ccccc1)n1c(NCCCN2CCN(c3ccccc3)CC2)nc2c1c(=O)n(C)c(=O)n2C (configuration not stated) , give the reported Ki.
115

What does the data say about its Ki? Entry: `O=C(c1ccccc1)N1CCC(CN2CCC(c3noc4cc(F)ccc34)CC2)CC1`
114

(A) O=C1/C(=C\c2cccnc2)c2ccccc2N1CCCN1CCN(c2cccc(Cl)c2)CC1
(B) Cn1c2c(c3ccccc31)CN(C/C=C\CCc1ccccc1)CC2
Decide: A or B , by lowest recorded Ki. Refer to your chosen entry by its label in the reply.
A
(A: 20 nM, B: 120 nM)

(A) O=C(CCCN1CCc2c([nH]c3ccccc23)C1)c1ccccc1
(B) O=c1ccc(OCCCN2CCN(c3ncccn3)CC2)nn1-c1ccc(Cl)c(Cl)c1
Given A and B , report the one with the higher recorded Ki. Let me know the label of the one you choose.
B
(B: 1140 nM, A: 16 nM)

(A) Cn1c2c(c3ccccc31)CN(CCCCCCc1ccccc1)CC2
(B) Cn1c2c(c3ccccc31)CN(CCCCc1ccc(F)cc1)CC2
(C) c1ccc(N2CCN(CCCOc3ccc4[nH]cnc4c3)CC2)cc1
(D) COc1ccccc1N1CCN(CCCN2C(=O)NC3(CCc4ccccc43)C2=O)CC1 (racemic)
List by increasing Ki. Labels, requested order.
C, B, A, D
(C: 13.8 nM, B: 65 nM, A: 185 nM, D: 653 nM)

(1) O=c1cc(C(F)(F)F)c2ccc(OCCCCN3CCC(c4noc5cc(F)ccc45)CC3)cc2o1
(2) c1ccc(OCCCN2CCc3c([nH]c4ccccc34)C2)cc1
(3) Cn1c2c(c3ccccc31)CN(CCCOc1cccc3ccccc13)CC2
Exam item: list the entries in increasing order of Ki. Response format: the labels, sorted as the prompt asks.
2, 1, 3
(2: 50 nM, 1: 228 nM, 3: 625 nM)

(a) c1ccc(N2CCN(CCCSc3nc4ccccc4o3)CC2)nc1
(b) O=C1CCC(=O)N1CCN1CCN(c2cccc(Cl)c2)CC1
(c) O=S(=O)(NCCCCCN1CCN(c2ccc(Cl)cc2)CC1)c1cnc2ccccc2c1
(d) O=c1ccc(OCCCN2CCN(c3cccc(Cl)c3Cl)CC2)nn1-c1ccc(Cl)c(Cl)c1
(e) CCn1ccc2cc3c(cc21)CCN3C(=O)Nc1cccnc1
Put the molecules in ascending order of Ki. Labels, ranked as asked.
c, a, d, e, b

(P) COc1ccccc1N1CCN(CCCCCCSc2nc3ccccc3o2)CC1
(Q) OC(c1ccc(F)cc1)C1CCN(CCc2ccccc2)CC1 (configuration not stated)
(R) FC(F)(F)c1cccc(N2CCN(CCCOc3ccc4[nH]cnc4c3)CC2)c1
Ascending by Ki, please: list the molecules accordingly. Output spec: a listing of the labels in the requested order.
Q, R, P

(P) Cn1c(=O)c2c(nc3n2CCCN3CCCCN2CCN(c3ccccc3)CC2)n(C)c1=O
(Q) O=S(=O)(NCCCCN1CCN(c2cccc(Cl)c2)CC1)c1cnc2ccccc2c1
(R) Cn1c(=O)c2c(ncn2CCCN2CCN(c3cccc(Cl)c3)CC2)n(C)c1=O
(S) Cc1c(C)c2ccc(OCCCCN3CCC(c4noc5cc(F)ccc45)CC3)c(C)c2oc1=O
(T) CC12C(=O)C(C)(C(c3ccccc3)=C1c1ccccc1)C1C(=O)N(CCCCN3CCN(c4ccccc4Cl)CC3)C(=O)C12 (configuration not stated)
List items by Ki in falling order. Answer format: list of labels, ordered as asked.
S, P, T, R, Q
(S: 607 nM, P: 243 nM, T: 100 nM, R: 53 nM, Q: 22 nM)

(A) COc1ccccc1N1CCN(CCCOc2ccc(=O)n(-c3ccc(Cl)c(Cl)c3)n2)CC1
(B) COc1ccc2c(c1)c1c(n2C)CCN(CCCOc2ccc(F)cc2)C1
(C) CN1CCc2cc(Cl)c(O)cc2C(c2ccccc2Br)C1 (configuration not stated)
(D) O=S(=O)(NCCCCN1CCc2ccccc2C1)c1cnc2ccccc2c1
(E) O=C1C(CCN2CCC(c3noc4cc(F)ccc34)CC2)CC2=CC=CC12 (configuration not stated)
Order the entries by their reported Ki, beginning at the minimum. Give your ranking as a list of the labels in the requested order.
E, C, B, A, D
(E: 1.74 nM, C: 22.1 nM, B: 38 nM, A: 242 nM, D: 590 nM)
